- Test system: Mycoplasma bovis (Myc bov)
- experiment summary: microbe, parasite or virus in culture
- Format: cell-based
- condition parameters: Mycoplasmopsis bovis, read-out: MIC Myc bov
I'd be grateful if you could share measured MIC for these entries.
Give the figure together with its unit, number first.

Data request: Fill in: MIC of CN1COc2c(N3CCN4CCCC4C3)c(F)cc3c(=O)c(C(=O)O)cn1c23 (stereo not drawn) [Example 7] is ___
Data returned: 1 µg/mL

Data request: Fill in: MIC of CN1COc2c(N3CCN(C(=O)c4cscn4)CC3)c(F)cc3c(=O)c(C(=O)O)cn1c23 [Example 2] is ___
Data returned: 1 µg/mL

Data request: Fill in: MIC of Cc1ncsc1C(=O)N1CCN(c2c(F)cc3c(=O)c(C(=O)O)cn4c3c2OCN4C)CC1 [Example 3] is ___
Data returned: 2 µg/mL

Data request: Fill in: MIC of CN1COc2c(N3CCN(C(=O)c4ccco4)CC3)c(F)cc3c(=O)c(C(=O)O)cn1c23 [Example 5] is ___
Data returned: 0.5 µg/mL

Data request: Fill in: MIC of CN1COc2c(N3CCN4CCC[C@@H]4C3)c(F)cc3c(=O)c(C(=O)O)cn1c23 [Example 9] is ___
Data returned: 0.5 µg/mL

Data request: Fill in: MIC of CN1COc2c(N3CCN(C(=O)c4cccs4)CC3)c(F)cc3c(=O)c(C(=O)O)cn1c23 [Example 4] is ___
Data returned: 0.5 µg/mL

Data request: Fill in: MIC of CN1COc2c(N3CCN4CCCCC4C3)c(F)cc3c(=O)c(C(=O)O)cn1c23 (stereo not drawn) [Example 6] is ___
Data returned: 1 µg/mL

Data request: Fill in: MIC of CN1COc2c(N3CCN4CCC[C@H]4C3)c(F)cc3c(=O)c(C(=O)O)cn1c23 [Example 8] is ___
Data returned: 1 µg/mL

Data request: Fill in: MIC of CN1COc2c(N3CCN(C(=O)c4cccn4C)CC3)c(F)cc3c(=O)c(C(=O)O)cn1c23 [Example 1] is ___
Data returned: 0.5 µg/mL
